Experiment: small-molecule microarray binders of probe aEGFR, primary screen, biochemical, biotinylated probe, 635/667 nm fluorescence (AID 1097);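 further: probe is a biotinylated anti-EGFR antibody binding compounds printed on slides; score combines fluorescence near 667 nm and signal to noise of each spot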
Conditions: higher = more signal
Given measured composite z-score, output TRUE if it is greater than or equal to -0.1 and FALSE if not.

>>> cat("COc1ccccc1CN1C(=O)c2ccccc2[C@@H](C(=O)NCCN2CCOCC2)[C@@H]1c1ccc(CO)cc1")
"FALSE"
>>> cat("NC(=O)NCC#Cc1ccc2c(c1)[C@]1(C(=O)N2)[C@H](C(=O)N2CCCCCCC2)[C@H]2C(=O)O[C@H](c3ccccc3)[C@H](c3ccccc3)N2[C@@H]1c1ccc(OCCO)cc1")
"TRUE"
>>> cat("O=C/C=C/c1ccc(Cl)cc1")
"FALSE"
>>> cat("C=CCNC(=O)[C@@H]1[C@H]2C(=O)O[C@H](c3ccccc3)[C@H](c3ccccc3)N2[C@H](c2ccccc2OCCO)[C@@]12C(=O)Nc1ccc(C#CC3=CCCCC3)cc12")
"TRUE"
>>> cat("CCOc1cc(C(O)C2C=CC3C(=O)N(c4ccccc4)C(=O)C3N2Nc2ccc([N+](=O)[O-])cc2)ccc1O (stereo not drawn)")
"TRUE"
>>> cat("COCCOC(=O)N1C(=O)[C@@]2(c3cc(C#CCCO)ccc31)[C@H](c1ccc(O)cc1)N1[C@H](c3ccccc3)[C@H](c3ccccc3)OC(=O)[C@H]1[C@@H]2C(N)=O")
"FALSE"
>>> cat("C=CCOC(=O)[C@@H]1[C@H]2C(=O)O[C@H](c3ccccc3)[C@H](c3ccccc3)N2[C@H](c2ccc(OCCOC(=O)[C@@H]3C[C@@H]4C(=O)NCC(=O)N4[C@@H]3c3cccc(OCCO)c3)cc2)[C@@]12C(=O)Nc1ccc(I)cc12")
"TRUE"
>>> cat("CCOC(=O)C[C@H]1[C@H](OC(=O)c2ccccc2-c2ccccc2)[C@@H](NC(=O)Cc2ccc(OC)cc2)c2cc(OCCCO)ccc2N1C(=O)c1ccccc1")
"FALSE"
>>> cat("COc1ccc(C#Cc2ccc3c(c2)[C@]2(C(=O)N3)[C@H](C(=O)NC[C@H](O)c3ccccc3)[C@H]3C(=O)O[C@H](c4ccccc4)[C@H](c4ccccc4)N3[C@@H]2c2ccc(OCCO)cc2)cc1")
"TRUE"
>>> cat("CC(C)C(O)C1C=CC2C(=O)N(c3ccccc3)C(=O)C2N1Nc1ccc(C#N)cc1 (stereo not drawn)")
"TRUE"
>>> cat("O=C(CCN1CCOCC1)c1cccc(O)c1")
"TRUE"
>>> cat("C=CCC(OC(C)=O)[C@@H]1[C@@H](N(Cc2ccc(-c3cccc(C(F)(F)F)c3)o2)C(=O)c2ccc(C)cc2)c2cc(OCCCO)ccc2N1C(=O)c1ccc(-c2ccccc2)cc1 (stereo partly drawn)")
"FALSE"
>>> cat("C=CCOC(=O)[C@@H]1[C@H]2C(=O)O[C@H](c3ccccc3)[C@H](c3ccccc3)N2[C@H](c2ccc(OCCOC(=O)[C@@H]3C[C@@H]4C(=O)N[C@@H](Cc5ccccc5)C(=O)N4[C@@H]3c3cccc(OCCO)c3)cc2)[C@@]12C(=O)Nc1ccc(I)cc12")
"TRUE"

====

Biological target: Neurogenic locus notch homolog protein 2 (Homo sapiens) (UniProt Q04721)
Sequence (Q04721 whole entry, looked up): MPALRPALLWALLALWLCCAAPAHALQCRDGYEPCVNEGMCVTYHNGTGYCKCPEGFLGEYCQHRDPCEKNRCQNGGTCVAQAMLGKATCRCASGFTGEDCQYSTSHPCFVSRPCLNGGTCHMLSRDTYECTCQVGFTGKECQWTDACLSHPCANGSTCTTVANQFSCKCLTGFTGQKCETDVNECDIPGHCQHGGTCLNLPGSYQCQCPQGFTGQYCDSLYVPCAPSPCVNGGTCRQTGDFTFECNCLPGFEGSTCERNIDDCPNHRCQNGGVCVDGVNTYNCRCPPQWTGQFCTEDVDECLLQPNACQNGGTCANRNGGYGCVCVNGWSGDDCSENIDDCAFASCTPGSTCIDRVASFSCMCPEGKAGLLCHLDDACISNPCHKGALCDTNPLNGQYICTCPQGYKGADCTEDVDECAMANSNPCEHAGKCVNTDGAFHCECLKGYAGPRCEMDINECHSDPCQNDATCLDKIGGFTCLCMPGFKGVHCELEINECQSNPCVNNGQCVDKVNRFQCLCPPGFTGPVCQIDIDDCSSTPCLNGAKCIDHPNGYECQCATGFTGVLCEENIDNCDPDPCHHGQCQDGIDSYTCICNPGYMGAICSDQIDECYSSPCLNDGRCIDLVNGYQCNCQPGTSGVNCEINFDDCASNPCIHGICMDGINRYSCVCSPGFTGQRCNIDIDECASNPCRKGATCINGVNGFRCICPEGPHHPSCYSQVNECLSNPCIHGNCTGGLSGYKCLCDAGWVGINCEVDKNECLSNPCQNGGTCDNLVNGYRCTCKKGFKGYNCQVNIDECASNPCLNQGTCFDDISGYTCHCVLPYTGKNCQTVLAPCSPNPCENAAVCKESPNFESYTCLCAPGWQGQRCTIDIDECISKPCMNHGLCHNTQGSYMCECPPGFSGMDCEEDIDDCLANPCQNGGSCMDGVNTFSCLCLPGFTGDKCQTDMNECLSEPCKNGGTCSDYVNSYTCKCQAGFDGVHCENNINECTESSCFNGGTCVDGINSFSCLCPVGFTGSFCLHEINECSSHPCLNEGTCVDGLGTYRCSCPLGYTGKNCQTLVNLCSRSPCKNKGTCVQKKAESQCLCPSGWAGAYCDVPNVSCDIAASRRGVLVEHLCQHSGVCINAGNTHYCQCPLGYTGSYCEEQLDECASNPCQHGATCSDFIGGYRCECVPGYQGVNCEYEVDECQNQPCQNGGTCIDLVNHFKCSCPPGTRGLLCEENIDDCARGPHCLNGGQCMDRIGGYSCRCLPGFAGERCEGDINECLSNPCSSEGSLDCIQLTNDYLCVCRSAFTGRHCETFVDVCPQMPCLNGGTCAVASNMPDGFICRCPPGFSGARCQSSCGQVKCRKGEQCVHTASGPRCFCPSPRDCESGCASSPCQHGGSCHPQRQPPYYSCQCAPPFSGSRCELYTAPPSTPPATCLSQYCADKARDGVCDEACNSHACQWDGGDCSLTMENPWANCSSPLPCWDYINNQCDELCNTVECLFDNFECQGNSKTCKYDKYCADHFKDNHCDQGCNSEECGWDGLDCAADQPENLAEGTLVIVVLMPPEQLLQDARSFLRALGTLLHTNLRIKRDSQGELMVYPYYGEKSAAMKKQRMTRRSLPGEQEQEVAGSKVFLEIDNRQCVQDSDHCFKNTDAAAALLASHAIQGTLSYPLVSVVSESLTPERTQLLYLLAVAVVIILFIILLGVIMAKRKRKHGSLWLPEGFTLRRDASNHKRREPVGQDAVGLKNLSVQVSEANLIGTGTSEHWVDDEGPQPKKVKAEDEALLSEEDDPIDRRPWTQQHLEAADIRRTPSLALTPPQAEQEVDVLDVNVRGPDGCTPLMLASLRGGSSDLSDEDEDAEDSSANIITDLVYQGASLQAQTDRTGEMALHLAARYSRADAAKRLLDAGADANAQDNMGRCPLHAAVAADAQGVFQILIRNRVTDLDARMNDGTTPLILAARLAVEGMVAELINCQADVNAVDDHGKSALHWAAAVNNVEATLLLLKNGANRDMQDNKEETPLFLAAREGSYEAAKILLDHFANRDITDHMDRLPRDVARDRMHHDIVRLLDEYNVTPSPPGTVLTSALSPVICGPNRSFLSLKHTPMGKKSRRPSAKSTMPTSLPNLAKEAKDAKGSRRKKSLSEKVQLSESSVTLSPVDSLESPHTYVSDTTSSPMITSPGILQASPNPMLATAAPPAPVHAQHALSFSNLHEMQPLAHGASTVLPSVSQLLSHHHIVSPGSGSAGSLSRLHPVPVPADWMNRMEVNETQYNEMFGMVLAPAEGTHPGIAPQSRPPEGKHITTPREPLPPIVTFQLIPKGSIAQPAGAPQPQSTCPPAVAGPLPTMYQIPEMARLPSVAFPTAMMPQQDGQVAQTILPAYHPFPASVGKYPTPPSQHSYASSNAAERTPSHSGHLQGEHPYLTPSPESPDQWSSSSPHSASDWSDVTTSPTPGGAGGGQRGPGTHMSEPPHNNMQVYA
Assay: Notch2 binders on small-molecule microarrays, primary screen, biochemical, small-molecule microarray, 635 nm fluorescence, stem cell growth factors (AID 1073)
Conditions: Notch2 binding, higher = more signal
Parameter threshold = 1. Response is t when composite z-score meets or exceeds it, else f.

>>> cat("Cc1ccc(S[C@]2(C(=O)O)CC(=O)N(C3Cc4ccccc4C3)[C@@H]2c2ccc(CO)cc2I)cc1")
"f"
>>> cat("O=C1O[C@H](c2ccccc2)[C@H](c2ccccc2)N2[C@H]1[C@@H](C(=O)Nc1nc3ccccc3s1)[C@]1(C(=O)Nc3ccccc31)[C@H]2c1ccc(O)cc1")
"t"
>>> cat("COCCOC(=O)N1C(=O)[C@@]2(c3cc(C#CC4=CCCCC4)ccc31)[C@H](C(=O)NC[C@H](O)c1ccccc1)[C@H]1C(=O)O[C@H](c3ccccc3)[C@H](c3ccccc3)N1[C@@H]2c1ccc(O)cc1")
"t"
>>> cat("COC(=O)[C@@]1(Cc2ccc(F)cc2)[C@H]2c3cc(C(=O)N4CCCC4)n(Cc4cccc5ccccc45)c3C[C@H]2CN1C(=O)c1ccccc1")
"t"
>>> cat("O=C1O[C@H](c2ccccc2)[C@H](c2ccccc2)N2[C@H]1[C@@H](C(=O)O)[C@]1(C(=O)Nc3ccc(C#CC4=CCCCC4)cc31)[C@H]2c1ccc(OCCO)cc1")
"t"
>>> cat("[N-]=[N+]=NCc1ccccc1[C@@H]1OC(c2ccc(OCCCO)cc2)=N[C@]1(Cc1ccccc1N=[N+]=[N-])C(=O)NCc1ccccc1")
"t"
